Biological target: RUNX1-NHR2 protein (Homo sapiens, UniProt Q01196+Q06455)
Construct: the wild type NHR2 tetramerization domain or the homologous BCR tetramerization domain (highlighted) are optionally enclosed by an N-terminal RUNX1 domain; His6 (C); made in house; host or cells: E. coli BL21(DE3)
Sequence (Q01196+Q06455 fused): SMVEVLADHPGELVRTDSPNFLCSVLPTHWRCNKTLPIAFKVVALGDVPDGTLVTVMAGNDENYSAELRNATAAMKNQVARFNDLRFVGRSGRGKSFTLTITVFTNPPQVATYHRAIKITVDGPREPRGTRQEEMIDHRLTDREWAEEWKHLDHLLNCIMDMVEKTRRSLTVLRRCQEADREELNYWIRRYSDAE
Experiment: ELISA: tetramer-dependent binding of RUNX1-NHR2 protein to immobilized RUNX3 oligonucleotide
Type: biochemical
Settings: relative inhibition at 1 mM inhibitor concentration; RUNX1-NHR2 protein; read-out: ELISA Inhibition [%] NHR2
propertyMeasured: inhibition at 1000 µM (%)

1) O=C(CSc1nc2ccccc2[nH]1)Nc1ccc(Cl)c(C(=O)O)c1 [Compound 5.4]	89.7
2) Cc1c(CC(=O)NCCC(=O)O)c(=O)oc2c(C)c3occ(C(C)(C)C)c3cc12 [Compound 5.17]	41.7

A: Cc1oc(C(=O)O)cc1CSCc1cc(C(=O)O)oc1C [Compound 5.9]
B: COc1ccc(OC)c2[nH]c(C(=O)NCC3(CC(=O)O)CCCCC3)cc12 [Compound 5.18]
Select one: A or B . Criterion: greater recorded inhibition at 1000 µM. Answer by quoting the chosen item's label.
B
